test system: PCase (PCase Type I); assay: Paper disk colour-change test, reactivity against β-lactamases (PCase); type: biochemical, B. cereus; set-up: key: −: negative; +: positive; ++: highly positive; conditions: content 5 μg/disk; 50 μl of 1 U/ml enzyme; 10 minutes
measurement-type: Reactivity against β-lactamases: PCase

>  <compound>
Nc1nc(C(=NOCC(=O)O)C(=O)NC2C(=O)N3C(C(=O)O)=C(C=Cc4ccc([N+](=O)[O-])cc4)CS[C@H]23)cs1 (stereo partly drawn)

>  <measurement-type>
Reactivity against β-lactamases: PCase

>  <reported-measurement>
−

$$$$
>  <compound>
CC(C)(ON=C(C(=O)NC1C(=O)N2C(C(=O)O)=C(C=Cc3ccc([N+](=O)[O-])cc3[N+](=O)[O-])CS[C@H]12)c1csc(N)n1)C(=O)O (stereo partly drawn)

>  <measurement-type>
Reactivity against β-lactamases: PCase

>  <reported-measurement>
−

$$$$
>  <compound>
CC(C)(ON=C(C(=O)NC1C(=O)N2C(C(=O)O)=C(C=Cc3ccc([N+](=O)[O-])cc3)CS[C@H]12)c1csc(N)n1)C(=O)O (stereo partly drawn)

>  <measurement-type>
Reactivity against β-lactamases: PCase

>  <reported-measurement>
−

$$$$

====

tested on: ESBL; test: Paper disk colour-change test, reactivity against β-lactamases (ESBL); format: biochemical; details: content 5 μg/disk; 50 μl of 1 U/ml enzyme; 10 minutes
measurement-type: color change

>  <molecule>
Nc1nc(C(=NOCC(=O)O)C(=O)NC2C(=O)N3C(C(=O)O)=C(C=Cc4ccc([N+](=O)[O-])cc4)CS[C@H]23)cs1 (stereo partly drawn) [compound 6]

>  <measurement-target>
ESBL

>  <reported-measurement>
pale yellow → orange

$$$$
>  <molecule>
CON=C(C(=O)NC1C(=O)N2C(C(=O)O)=C(C=Cc3ccc([N+](=O)[O-])cc3)CS[C@H]12)c1csc(N)n1 (stereo partly drawn) [compound 4]

>  <measurement-target>
ESBL

>  <reported-measurement>
pale yellow → orange

$$$$
>  <molecule>
CC(C)(ON=C(C(=O)NC1C(=O)N2C(C(=O)O)=C(C=Cc3ccc([N+](=O)[O-])cc3)CS[C@H]12)c1csc(N)n1)C(=O)O (stereo partly drawn) [compound 2]

>  <measurement-target>
ESBL

>  <reported-measurement>
pale yellow → orange

$$$$
>  <molecule>
Nc1nc(C(=NOCC(=O)O)C(=O)NC2C(=O)N3C(C(=O)O)=C(C=Cc4ccc([N+](=O)[O-])cc4[N+](=O)[O-])CS[C@H]23)cs1 (stereo partly drawn) [compound 5]

>  <measurement-target>
ESBL

>  <reported-measurement>
pale yellow → red

$$$$
>  <molecule>
O=C(Cc1cccs1)NC1C(=O)N2C(C(=O)O)=C(C=Cc3ccc([N+](=O)[O-])cc3[N+](=O)[O-])CS[C@H]12 (stereo partly drawn) [compound A, reference compound]

>  <measurement-target>
ESBL

>  <reported-measurement>
pale yellow → red

$$$$

Here is the next item to consider.
Inquiry: Record request: color change value, item CC(C)(ON=C(C(=O)NC1C(=O)N2C(C(=O)O)=C(C=Cc3ccc([N+](=O)[O-])cc3[N+](=O)[O-])CS[C@H]12)c1csc(N)n1)C(=O)O (stereo partly drawn) [compound 1]
Reply text: pale yellow → red

====

system: PCase (PCase Type I); assay: Paper disk colour-change test, reactivity against β-lactamases (PCase); type: biochemical, B. cereus; set-up: key: −: negative; +: positive; ++: highly positive; settings: content 5 μg/disk; 50 μl of 1 U/ml enzyme; 10 minutes
measurement-type: Reactivity against β-lactamases: PCase

>  <compound>
Nc1nc(C(=NOCC(=O)O)C(=O)NC2C(=O)N3C(C(=O)O)=C(C=Cc4ccc([N+](=O)[O-])cc4[N+](=O)[O-])CS[C@H]23)cs1 (stereo partly drawn)

>  <measurement-type>
Reactivity against β-lactamases: PCase

>  <reported-measurement>
−

$$$$
>  <compound>
CON=C(C(=O)NC1C(=O)N2C(C(=O)O)=C(C=Cc3ccc([N+](=O)[O-])cc3)CS[C@H]12)c1csc(N)n1 (stereo partly drawn)

>  <measurement-type>
Reactivity against β-lactamases: PCase

>  <reported-measurement>
−

$$$$
>  <compound>
O=C(Cc1cccs1)NC1C(=O)N2C(C(=O)O)=C(C=Cc3ccc([N+](=O)[O-])cc3[N+](=O)[O-])CS[C@H]12 (stereo partly drawn) [compound A, reference compound]

>  <measurement-type>
Reactivity against β-lactamases: PCase

>  <reported-measurement>
++

$$$$
